test system: pERK in ASPC1 cells; assay: Inhibition of KRas phosphorylation of ERK (Cisbio HTRF pERK assay); conditions: Homo sapiens, ASPC1, read-out: Inhibition (HTRF IC50) of KRas-mediated Phosphorylation of ERK, AsPC-1
pIC50: −log10 of the molar value.
QUANTITY_KIND: pIC50

MOLECULE	TGT	pIC50
CCc1c(F)ccc2cc(O)cc(-c3ncc4c(N5CCOC6(CCS(=O)(=O)CC6)C5)nc(OC[C@@]56CCCN5C[C@H](F)C6)nc4c3F)c12	pERK in ASPC1 cells	5.68
CCc1c(F)ccc2cc(O)cc(-c3ncc4c(N5CCCn6nc(C(=O)NCCO)cc6C5)nc(OC[C@@]56CCCN5C[C@H](F)C6)nc4c3F)c12	pERK in ASPC1 cells	6.52
CCc1c(F)ccc2cc(O)cc(-c3ncc4c(N5CCCC6(CC(F)C6)C5)nc(OC[C@@]56CCCN5C[C@H](F)C6)nc4c3F)c12 (stereo partly drawn)	pERK in ASPC1 cells	5.47
C[C@@]1(O)CCCN(c2nc(OC[C@@]34CCCN3C[C@H](F)C4)nc3c(F)c(-c4cc(O)cc5ccc(F)c(Br)c45)ncc23)C1	pERK in ASPC1 cells	8.52

I: CCc1c(F)ccc2cc(O)cc(-c3ncc4c(N5CCCc6nn(C(=O)N(C)C)cc6C5)nc(OC[C@@]56CCCN5C[C@H](F)C6)nc4c3F)c12
II: CCc1c(F)ccc2cc(O)cc(-c3ncc4c(N5CCCn6nc(C(=O)N(C)C)c(Cl)c6C5)nc(OC[C@@]56CCCN5C[C@H](F)C6)nc4c3F)c12
Which has the higher pIC50, I or II ? Return value: the label identifying the chosen record. II
(II: 8.40, I: 8.15)

====

target: KRas G12R (Homo sapiens, UniProt P01116, G12R); test: biochemical;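 note: TR-FRET displacement assay of compound binding to KRas, read after one hour at room temperature, potency from a four-parameter fit of percent-of-control values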
Sequence (P01116 1-169 isoform P01116-2 G12R): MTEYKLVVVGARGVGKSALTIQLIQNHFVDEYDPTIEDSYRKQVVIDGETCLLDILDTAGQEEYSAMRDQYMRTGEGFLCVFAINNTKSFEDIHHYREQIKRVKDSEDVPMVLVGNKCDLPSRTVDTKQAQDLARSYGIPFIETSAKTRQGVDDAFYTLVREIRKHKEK
QUANTITY_KIND: IC50 (nM)

a: Fc1c(-c2cccc3cccc(Cl)c23)ncc2c(N3CCCC3c3cn[nH]c3)nc(OCC34CCCN3CCC4)nc12 (stereo not drawn)
b: CCc1c(F)ccc2cc(O)cc(-c3ncc4c(N5CCN(c6ncccc6C#N)CC5)nc(OC[C@@]56CCCN5C[C@H](F)C6)nc4c3F)c12
# return whichever of a and b has the smaller IC50 Indicate which entry you chose by stating its label. b
(b: 3 nM, a: 2820 nM)

====

tested on: pERK in ASPC1 cells; test: Inhibition of KRas phosphorylation of ERK (Cisbio HTRF pERK assay); conditions: Homo sapiens, ASPC1, read-out: Inhibition (HTRF IC50) of KRas-mediated Phosphorylation of ERK, AsPC-1
QUANTITY_KIND: IC50 (nM)

COMPOUND	ENDPOINT_UNIT	IC50
CCc1c(F)ccc2cc(O)cc(-c3ncc4c(N5CCCn6nc(CO)cc6C5)nc(OC[C@@]56CCCN5C[C@H](F)C6)nc4c3F)c12 [Example 341]	nM	472

1: Oc1cc(-c2ncc3c(N4CC5CC(O)CC4C5)nc(OC[C@@]45CCCN4C[C@H](F)C5)nc3c2F)c2c(Br)c(F)ccc2c1 (stereo partly shown) [Example 403]
2: CCc1c(F)ccc2cc(O)cc(-c3ncc4c(NCC5CNC5=O)nc(OC[C@@]56CCCN5C[C@H](F)C6)nc4c3F)c12 (stereo partly shown) [Example 485]
3: Cc1c(F)ccc2cc(O)cc(-c3ncc4c(N5CCCC(CS(N)(=O)=O)C5)nc(OC[C@@]56CCCN5C[C@H](F)C6)nc4c3F)c12 (stereo partly shown) [Example 461]
4: CCc1c(F)ccc2cc(O)cc(-c3ncc4c(N5CCCC6(CC(=O)NC6=O)C5)nc(OC[C@@]56CCCN5C[C@H](F)C6)nc4c3F)c12 (stereo partly shown) [Example 318]
Rank order required: IC50, descending. Order the labels as requested and list them. 2, 3, 1, 4

Cited source: patent US12398154B2
